- condition.details: human; liver_microsomes
So I've got a bunch of compounds here, and I need their microsomal CLint values.
Kindly report the value followed by its unit.

O=C(Nc1ccc2c(c1)CNC2)c1cc(Br)cc2[nH]c(-c3ccccc3)nc12	12.8 µL/min/mg

Please report microsomal CLint for every entry that follows.
1. N#Cc1cc2c(cc1NC(=O)c1cc(F)cc3[nH]ncc13)CNC2
2. Cc1cc(OCc2ccccc2)ccc1NS(=O)(=O)c1ccc(Cl)cc1C(=O)O

16.7 µL/min/mg
22.3 µL/min/mg

Please report microsomal CLint for every entry that follows.
1. COc1ccc2c(c1)CCN(c1ncnc3[nH]ccc13)[C@H]2C(C)C (racemic)
2. Cn1ncc(-c2cc3c(N[C@H](c4ccc5c(n4)OCCO5)C(C)(C)C)ncnc3[nH]2)c1C#N (racemic)
3. C=CC[C@H](Nc1cccc(-c2nn[nH]n2)c1)c1cc(Cl)cc(NC(=O)OCc2ccccc2)c1 (racemic)
4. N#C[C@H](Nc1ccc2c(c1)CNC2)c1cc(Cl)cc2[nH]ncc12 (racemic)
5. CCNC(=O)c1cc2c(N[C@H](c3ccc4c(c3)S(=O)(=O)CCO4)C(C)C)ncnc2[nH]1 (racemic)
6. COc1ccc([C@H](Cc2nnn[nH]2)NC(=O)c2ncnc3[nH]ccc23)cc1 (racemic)

1: 60 µL/min/mg; 2: 81 µL/min/mg; 3: 65.5 µL/min/mg; 4: 10.3 µL/min/mg; 5: 64 µL/min/mg; 6: 5 µL/min/mg
